molecular target: Eukaryotic translation initiation factor 4E (Mus musculus, UniProt P63073); assay: blockers of eIF4G binding by eIF4E – biochemical, TR-FRET, dose response (AID 855); format: functional;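 note: potency for disrupting eIF4E binding to eIF4GI seen as loss of FRET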
Sequence (P63073 whole entry): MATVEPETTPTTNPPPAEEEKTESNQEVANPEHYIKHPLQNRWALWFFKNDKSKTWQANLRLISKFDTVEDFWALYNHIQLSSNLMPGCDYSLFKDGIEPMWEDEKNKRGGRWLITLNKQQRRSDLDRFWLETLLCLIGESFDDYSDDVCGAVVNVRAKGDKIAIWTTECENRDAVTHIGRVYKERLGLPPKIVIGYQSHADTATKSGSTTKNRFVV
Calls of active or inactive are those of the source.
One label from this list, please: label 1 (active), label 0 (inactive)

Req: # fetch the recorded call for O=C(O)c1ccccc1C(=O)Nc1nccs1 here
Resp: label 0

Req: # fetch the recorded call for O=c1c2ccccc2sn1-c1ccccc1 here
Resp: label 1

Req: # fetch the recorded call for CCNCC(O)COCC(O)CNCC (configuration not stated) here
Resp: label 0

Req: # fetch the recorded call for Cc1ccc(S(=O)(=O)CCC(=O)NCc2ccccc2Cl)cc1 here
Resp: label 0

Req: # fetch the recorded call for Clc1ccc(Cl)c(-c2nn3c(COc4ccccc4)nnc3s2)c1 here
Resp: label 0

Req: # fetch the recorded call for O=C(/C=C/c1ccco1)c1ccccc1O here
Resp: label 0

Req: # fetch the recorded call for Cc1c2cnn(CC(=O)Nc3c(F)c(F)cc(F)c3F)c(=O)c2c(C)n1Cc1ccccc1F here
Resp: label 0

====

target: UniProt:P03070; type: functional, Betapolyomavirus macacae
Sequence (P03070 whole entry): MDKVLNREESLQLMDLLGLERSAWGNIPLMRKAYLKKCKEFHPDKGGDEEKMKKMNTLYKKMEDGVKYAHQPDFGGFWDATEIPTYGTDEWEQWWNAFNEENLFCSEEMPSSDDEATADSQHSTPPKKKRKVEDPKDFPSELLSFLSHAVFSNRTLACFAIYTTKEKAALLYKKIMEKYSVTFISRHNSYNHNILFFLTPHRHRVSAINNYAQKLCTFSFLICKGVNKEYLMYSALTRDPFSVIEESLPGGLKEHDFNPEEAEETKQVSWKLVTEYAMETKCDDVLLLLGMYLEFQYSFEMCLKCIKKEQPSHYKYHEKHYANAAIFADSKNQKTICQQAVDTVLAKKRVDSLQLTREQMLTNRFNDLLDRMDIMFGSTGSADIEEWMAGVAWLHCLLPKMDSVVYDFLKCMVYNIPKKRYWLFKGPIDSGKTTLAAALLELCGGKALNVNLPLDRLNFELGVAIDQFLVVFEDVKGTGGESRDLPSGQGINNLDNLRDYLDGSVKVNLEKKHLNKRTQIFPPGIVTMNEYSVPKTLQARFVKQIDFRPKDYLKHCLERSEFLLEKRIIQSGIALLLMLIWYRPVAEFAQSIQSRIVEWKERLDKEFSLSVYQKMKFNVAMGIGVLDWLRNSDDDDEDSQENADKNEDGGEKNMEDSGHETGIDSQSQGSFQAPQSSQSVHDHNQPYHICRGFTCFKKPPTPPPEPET
Activity calls are given as the source filed them.
REPORTED_PROPERTY: IC50

IC50 recorded for this compound, CC(C)C1N=C2c3ccccc3N=C(SCC(=O)c3ccc(O)c(O)c3)N2C1=O (stereo unspecified) , is 21.3 µM (active)

IC50 recorded for this compound, Cc1ccc2nc(-c3ccccn3)c(NC3CCCC3)n2c1 , is 11.6 µM (active)

IC50 recorded for this compound, C=CCc1cccc2cc(C(=O)Nc3ccc(S(=O)(=O)Nc4nnc(CC)s4)cc3)c(=O)oc12 , is 83.2 µM (active)

IC50 recorded for this compound, COc1cc(/C=N/NS(=O)(=O)c2ccc(Br)cc2)ccc1O , is 19.4 µM (active)

IC50 recorded for this compound, COc1cc(/C=N/Nc2ccccn2)ccc1O , is 5.41 µM (active)

IC50 recorded for this compound, COc1cc(OC)c(C2CC(=O)N3CN(C)CSC3=C2C#N)cc1OC (stereo unspecified) , is 61.1 µM (active)

IC50 recorded for this compound, Oc1ccc(CCNc2c3ccccc3nc3ccccc23)cc1O , is 8.41 µM (active)

IC50 recorded for this compound, COc1ccc(N2CCN(C(CNC(=O)C3CCCCC3)c3cccnc3)CC2)cc1 (stereo unspecified) , is 27 µM (active)

IC50 recorded for this compound, CN(C)c1ccc(Nc2nc(N)c([N+](=O)[O-])c(N3CCOCC3)n2)cc1 , is 3.84 µM (active)

IC50 recorded for this compound, COc1ccc(N2CCC(CNC(=O)Nc3cccc(OC)c3)C2)cc1 (stereo unspecified) , is 43.3 µM (active)

IC50 recorded for this compound, O=C(NN1C(=O)/C(=C/C=C/c2ccco2)SC1=S)c1ccccc1O , is 18.8 µM (active)

====

Target: Short transient receptor potential channel 4 (Mus musculus, UniProt Q9QUQ5)
Sequence (Q9QUQ5 whole entry): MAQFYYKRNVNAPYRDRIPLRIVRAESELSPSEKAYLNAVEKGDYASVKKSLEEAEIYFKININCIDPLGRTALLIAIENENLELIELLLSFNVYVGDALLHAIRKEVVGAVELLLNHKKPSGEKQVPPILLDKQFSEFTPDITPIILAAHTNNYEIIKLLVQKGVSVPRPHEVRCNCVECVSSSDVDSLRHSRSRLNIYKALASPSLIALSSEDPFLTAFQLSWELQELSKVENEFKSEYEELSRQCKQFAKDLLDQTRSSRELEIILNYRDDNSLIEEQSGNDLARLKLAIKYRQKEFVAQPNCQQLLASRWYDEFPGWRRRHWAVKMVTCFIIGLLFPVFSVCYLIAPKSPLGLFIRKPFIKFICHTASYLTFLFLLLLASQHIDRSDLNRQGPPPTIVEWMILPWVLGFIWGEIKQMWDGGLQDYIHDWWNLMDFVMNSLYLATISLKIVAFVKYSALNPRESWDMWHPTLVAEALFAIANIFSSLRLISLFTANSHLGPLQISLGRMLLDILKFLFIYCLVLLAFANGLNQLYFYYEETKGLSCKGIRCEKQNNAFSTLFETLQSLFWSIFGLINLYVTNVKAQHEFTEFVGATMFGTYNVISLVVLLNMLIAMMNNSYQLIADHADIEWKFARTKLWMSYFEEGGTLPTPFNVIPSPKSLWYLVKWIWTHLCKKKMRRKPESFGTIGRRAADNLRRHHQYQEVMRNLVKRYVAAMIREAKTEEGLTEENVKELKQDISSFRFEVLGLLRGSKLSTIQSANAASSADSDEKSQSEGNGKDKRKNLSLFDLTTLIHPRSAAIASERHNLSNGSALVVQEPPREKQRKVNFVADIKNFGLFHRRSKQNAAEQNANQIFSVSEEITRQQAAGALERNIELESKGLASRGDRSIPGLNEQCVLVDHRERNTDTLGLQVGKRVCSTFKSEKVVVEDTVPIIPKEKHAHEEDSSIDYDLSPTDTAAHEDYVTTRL
Assay: block of DAMGO-driven TRPC4 calcium entry – cell-based, HEK293 TRPC4/mu-opioid, Fluo-4 calcium, dose response (AID 434942);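 note: potency of inhibitors blocking the TRPC4 calcium response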
Format: functional
The source made the active and inactive calls.
Would you mind telling me the reported EC50 of each entry?

EC50 recorded for this molecule, O=C(Nc1cccc(Cl)c1)N1CCN2C(=O)c3ccccc3C12c1ccccc1 (centres undefined) , is 3.76 µM (active)

EC50 recorded for this molecule, Cc1nn(C)c(C)c1Sc1ccc(Br)cc1 , is 4.73 µM (active)

EC50 recorded for this molecule, c1ccn2cc(C34CC5CC(CC(C5)C3)C4)nc2c1 , is 6.68 µM (active)

EC50 recorded for this molecule, COc1ccc([N+](=O)[O-])cc1NCc1ccco1 , is 2.99 µM (active)

====

target: Genome polyprotein (dengue virus type 2); assay: flavivirus cap methylation enzyme inhibition – biochemical, confirmation dose response, primary screen (AID 588689); format: functional
Sequence (P29990 2492-3391 limits assumed): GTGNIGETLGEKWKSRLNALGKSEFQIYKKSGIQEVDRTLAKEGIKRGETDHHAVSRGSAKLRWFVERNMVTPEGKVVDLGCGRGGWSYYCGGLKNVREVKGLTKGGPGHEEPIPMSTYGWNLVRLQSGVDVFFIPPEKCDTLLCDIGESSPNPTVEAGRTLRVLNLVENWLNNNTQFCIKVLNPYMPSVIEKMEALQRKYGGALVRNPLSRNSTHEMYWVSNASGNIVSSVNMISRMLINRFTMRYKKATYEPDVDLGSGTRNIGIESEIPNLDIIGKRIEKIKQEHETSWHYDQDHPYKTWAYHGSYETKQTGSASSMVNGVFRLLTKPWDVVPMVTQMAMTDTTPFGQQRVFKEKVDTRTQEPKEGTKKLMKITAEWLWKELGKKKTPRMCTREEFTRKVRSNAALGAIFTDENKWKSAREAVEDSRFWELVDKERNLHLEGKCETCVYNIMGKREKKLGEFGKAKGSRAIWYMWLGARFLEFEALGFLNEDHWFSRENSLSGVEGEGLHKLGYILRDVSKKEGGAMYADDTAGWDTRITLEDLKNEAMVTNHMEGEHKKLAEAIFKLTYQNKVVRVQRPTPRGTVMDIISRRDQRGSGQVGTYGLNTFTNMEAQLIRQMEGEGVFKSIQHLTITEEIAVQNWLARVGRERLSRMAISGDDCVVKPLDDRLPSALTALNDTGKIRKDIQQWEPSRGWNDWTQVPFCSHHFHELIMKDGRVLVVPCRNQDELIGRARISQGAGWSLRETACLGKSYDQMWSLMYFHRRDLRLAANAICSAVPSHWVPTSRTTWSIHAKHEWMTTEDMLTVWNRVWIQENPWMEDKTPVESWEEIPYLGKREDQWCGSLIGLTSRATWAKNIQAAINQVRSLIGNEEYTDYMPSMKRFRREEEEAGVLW
Activity calls are given as the source filed them.
Would you mind telling me the reported IC50 of each entry?

Param item: Cc1c(CCC(=O)O)c(=O)oc2c(C)c(OCc3cc4c(cc3Cl)OCO4)ccc12 ; param system: Genome polyprotein (dengue virus type 2); output IC50: 51.7 µM (active)

Param item: Oc1c(CN2CCOCC2)cc(CN2CCOCC2)c(O)c1O ; param system: Genome polyprotein (dengue virus type 2); output IC50: 15.2 µM (active)

Param item: O=C1C(=NCCc2cc(Br)c(O)c(Br)c2)C=C(O)c2cccnc21 ; param system: Genome polyprotein (dengue virus type 2); output IC50: 12.2 µM (active)

Param item: O=C1C=C(Nc2ccccc2C(=O)O)c2ccccc2C1=O ; param system: Genome polyprotein (dengue virus type 2); output IC50: > 100 µM (active)

Param item: CC(/C=C1\SC(=S)N(c2ccc(C(=O)O)cc2)C1=O)=C\c1ccccc1 ; param system: Genome polyprotein (dengue virus type 2); output IC50: 33.7 µM (active)

Param item: COC(=O)C1=C(C(=O)OC)C(c2cc(Br)ccc2O)c2sc(O)nc2S1 (centres undefined) ; param system: Genome polyprotein (dengue virus type 2); output IC50: 81.6 µM (active)

Param item: CN1C(=O)/C(=C/c2ccc(C(=O)Nc3ccc(O)cc3C(=O)O)cc2)SC1=S ; param system: Genome polyprotein (dengue virus type 2); output IC50: 31.8 µM (active)

Param item: C=CCOc1ccc(C(c2c(C(=O)O)[nH]c3ccccc23)c2c(C(=O)O)[nH]c3ccccc23)cc1 ; param system: Genome polyprotein (dengue virus type 2); output IC50: 22 µM (active)

Param item: CC(Cc1ccc(O)cc1)NCC(O)c1ccc(O)c(O)c1 (centres undefined) ; param system: Genome polyprotein (dengue virus type 2); output IC50: > 100 µM (active)

====

test: luciferase reporter signal suppression in cells – H4 neuroglioma cells, luminescence, dose response (AID 1990); format: functional, cell-based
Active and inactive are the calls of the source.
REPORTED_PROPERTY: EC50

EC50 recorded for this compound, Cc1ccc2cc3c(N)c(C(=O)N4CC(=O)Nc5ccccc54)sc3nc2c1 , is < 100 nM (active)

EC50 recorded for this compound, C(=N\Nc1nc2ccccc2[nH]1)/c1cccc2cccnc12 , is 5090 nM (active)

EC50 recorded for this compound, COc1ccc(C2NCc3ccc4c(c3-n3cccc32)OCO4)cc1O (centres undefined) , is < 100 nM (active)

EC50 recorded for this compound, CCOc1ccc(NC(=O)NCCN2CCN(c3cccc(C)c3C)CC2)cc1 , is > 120000 nM (not active)

====

target: Corticotropin-releasing factor receptor 2/Corticotropin-releasing factor-binding protein (Homo sapiens, UniProt P24387+Q13324); assay: activators of CRF receptor 2 with binding protein – uHTS hits, confirmation (AID 602473); assay type: functional; details: read-out: EC50_Mean
Sequence (Q13324 whole entry): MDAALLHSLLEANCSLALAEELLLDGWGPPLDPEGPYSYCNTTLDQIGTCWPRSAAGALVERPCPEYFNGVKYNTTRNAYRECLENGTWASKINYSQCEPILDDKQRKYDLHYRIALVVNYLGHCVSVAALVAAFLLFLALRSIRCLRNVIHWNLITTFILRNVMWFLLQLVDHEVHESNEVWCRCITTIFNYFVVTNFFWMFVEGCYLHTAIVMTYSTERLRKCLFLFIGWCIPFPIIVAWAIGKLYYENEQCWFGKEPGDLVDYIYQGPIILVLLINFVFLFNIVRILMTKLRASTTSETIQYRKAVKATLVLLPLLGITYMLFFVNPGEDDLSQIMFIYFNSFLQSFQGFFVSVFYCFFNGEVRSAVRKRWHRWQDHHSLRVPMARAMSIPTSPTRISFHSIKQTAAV
Sequence (P24387 whole entry): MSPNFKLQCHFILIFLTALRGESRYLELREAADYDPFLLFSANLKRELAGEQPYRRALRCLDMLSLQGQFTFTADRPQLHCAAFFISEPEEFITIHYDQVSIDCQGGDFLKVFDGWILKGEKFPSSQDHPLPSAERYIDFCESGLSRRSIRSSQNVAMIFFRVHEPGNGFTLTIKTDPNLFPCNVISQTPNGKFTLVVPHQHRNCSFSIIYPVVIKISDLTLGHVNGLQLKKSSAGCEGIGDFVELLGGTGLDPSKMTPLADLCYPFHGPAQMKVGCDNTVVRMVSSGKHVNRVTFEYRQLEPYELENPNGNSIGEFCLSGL
Calls of active or inactive are those of the source.
One label from this list, please: active, inactive

Req: # fetch the recorded call for COc1ccc(Cn2c(-c3ccco3)nc3c(c(=O)c4ccccc4n3C)c2=O)cc1 here
Resp: inactive

Req: # fetch the recorded call for CC1=CC(=O)OC2CC3OC4C[C@@H](C)C5OC6CC7O[C@]8(C)C/C=C\C9OC%10CC%11OC(CC(C)C%12OCCO%12)CC(O)[C@]%11(C)OC%10CC9OC8C[C@]7(C)O[C@]6(C)CCC5OC4C[C@]3(C)OC12 (some centres undefined) here
Resp: active

Req: # fetch the recorded call for CCCNC(=O)C1CC(=O)N(c2ccc(OCC)cc2)C1 (centres undefined) here
Resp: inactive

Req: # fetch the recorded call for COc1ccc(-c2ccc3oc(-c4ccc(OC)cc4)c(C#CCO)c3c2)cc1 here
Resp: inactive
